Target: Type-1 angiotensin II receptor (Homo sapiens, UniProt P30556)
Sequence (P30556 whole entry): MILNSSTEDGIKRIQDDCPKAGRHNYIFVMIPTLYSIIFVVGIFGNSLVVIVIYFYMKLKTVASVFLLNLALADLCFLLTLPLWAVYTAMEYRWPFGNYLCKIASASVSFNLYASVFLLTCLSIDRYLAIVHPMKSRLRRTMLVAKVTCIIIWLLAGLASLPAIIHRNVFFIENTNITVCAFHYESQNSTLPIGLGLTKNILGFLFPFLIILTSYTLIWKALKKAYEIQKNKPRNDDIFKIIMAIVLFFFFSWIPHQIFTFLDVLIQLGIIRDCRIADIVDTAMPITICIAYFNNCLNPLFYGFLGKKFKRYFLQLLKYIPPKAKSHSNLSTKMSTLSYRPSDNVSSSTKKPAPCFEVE
Test: antagonism of angiotensin II type 1 receptor – cell-based, uHTS hits, selectivity assay for APJ receptor antagonist project, dose response (AID 463214);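 note: antagonist potency against angiotensin II stimulated AT1 response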
Assay type: functional
Activity calls are given as the source filed them.
Reported IC50 values are given for each entry in this list.

Take a look at these entries with their results.
C/C(=N/NC(=O)c1ccc(C(C)(C)C)cc1)c1ccccn1	3.48 µM (active)
C/C(=N\NC(=O)C(C)Oc1ccc([N+](=O)[O-])cc1)c1ccccn1 (centres undefined)	9.48 µM (active)
CC(C)Cc1nc2oc3c(Cl)ncnc3c2c2c1CCC2	> 40 µM (not active)

// below: IC50 requested for another molecule
State the recorded IC50 for this entry: O=[N+]([O-])c1ccc(N=Nc2ncc[nH]2)cc1
23.5 µM (not active)

====

Target: Rac GTPase-activating protein 1 (Homo sapiens, UniProt Q9H0H5)
Sequence (Q9H0H5 whole entry): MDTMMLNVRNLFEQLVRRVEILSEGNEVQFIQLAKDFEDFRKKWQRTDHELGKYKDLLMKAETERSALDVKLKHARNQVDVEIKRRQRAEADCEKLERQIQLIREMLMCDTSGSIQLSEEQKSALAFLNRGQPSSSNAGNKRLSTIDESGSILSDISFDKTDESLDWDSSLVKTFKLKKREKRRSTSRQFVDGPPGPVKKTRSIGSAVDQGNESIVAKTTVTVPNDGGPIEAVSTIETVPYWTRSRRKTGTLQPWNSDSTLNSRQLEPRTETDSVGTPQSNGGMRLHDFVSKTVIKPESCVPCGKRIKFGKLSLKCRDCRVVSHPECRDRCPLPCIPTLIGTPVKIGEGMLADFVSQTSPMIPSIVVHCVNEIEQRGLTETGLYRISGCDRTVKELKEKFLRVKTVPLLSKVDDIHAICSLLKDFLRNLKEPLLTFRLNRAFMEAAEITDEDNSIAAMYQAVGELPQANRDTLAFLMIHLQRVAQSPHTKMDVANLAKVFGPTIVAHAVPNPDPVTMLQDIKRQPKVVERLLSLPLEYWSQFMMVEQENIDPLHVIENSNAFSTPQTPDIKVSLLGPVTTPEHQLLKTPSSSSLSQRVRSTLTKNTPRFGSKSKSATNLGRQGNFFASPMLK
Experiment: blockers of MgcRacGAP-driven Rac1 GTP hydrolysis – biochemical, ADP Hunter fluorescence, primary and confirmatory, confirmation (AID 624330)
Format: functional
The source made the active and inactive calls.
measured metric: IC50

Take a look at these entries with their results.
COc1ccc(N2CCN(c3ncccn3)CC2)cc1	82.9 µM (active)
COc1ccc(Br)cc1CNCCc1cccc(Cl)c1	130 µM (active)
COc1cc(CN2CCC(C(=O)NC3CCCC3)CC2)cc(Br)c1O	127 µM (active)
CCN(CC)c1ccc(NC(=O)CN(C)Cc2cccs2)cc1	90.9 µM (active)
COc1cccc(/C=N/n2c(S)nnc2-c2[nH]nc3c2CCC3)c1O	53.9 µM (active)

State the recorded IC50 for this entry: C[C@@H]1O[C@@H](OC[C@H]2O[C@@H](Oc3cc(O)c4c(=O)cc(-c5ccc(O)c(O)c5)oc4c3)[C@H](O)[C@@H](O)[C@@H]2O)[C@H](O)[C@H](O)[C@H]1O
42.7 µM (active)

State the recorded IC50 for this entry: Cc1ccc(CCC(=O)Nc2ccc(N(C)C)cc2)o1
45.1 µM (active)

State the recorded IC50 for this entry: NNc1ccc([N+](=O)[O-])c2n[nH]c(O)c12
76.8 µM (active)

State the recorded IC50 for this entry: Cc1cc(C)nc(N/N=C/c2c[nH]c3ccccc23)n1
63.2 µM (active)

State the recorded IC50 for this entry: O=c1c2ccccc2sn1-c1ccc(Cl)cc1
34.7 µM (active)

State the recorded IC50 for this entry: c1csc(CNc2ccc3c(c2)OCCO3)c1
46.4 µM (active)

State the recorded IC50 for this entry: CCOc1cc(/C=N\NC(=O)c2c(C)nc3ccccn23)ccc1O
76 µM (active)

State the recorded IC50 for this entry: CCn1c(C)nc2cc(C(=O)N/N=C/c3cccc(O)c3O)ccc21
119 µM (active)

State the recorded IC50 for this entry: Clc1ccc(OCC#CCN2CCCCCC2)cc1
184 µM (active)

State the recorded IC50 for this entry: O=C1CCN(c2ccccc2)N1 [PHENIDONE]
46.5 µM (active)

State the recorded IC50 for this entry: COc1cc(/C=N/NC(=O)CN(Cc2ccccc2)S(=O)(=O)c2ccc3c(c2)OCCO3)ccc1O
74.6 µM (active)

State the recorded IC50 for this entry: C/C(=N\Nc1nc2ccccc2[nH]1)c1cccs1
26.8 µM (active)

State the recorded IC50 for this entry: CCOc1cc(/C=N/NC(=O)CCCC(=O)NC2CCCCC2)ccc1O
69.6 µM (active)

====

Reported EC50 values are given for each entry in this list.
Assay: viability of HCT116 lacking mutant beta-catenin – cell-based, human colon tumor, dose response (AID 1045);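 note: HCT116 colon tumor cells with beta catenin knocked out; cells exposed to compound for 60 hours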
Type: functional
The source made the active and inactive calls.

Take a look at these entries with their results.
CC(C)Cc1nc2oc3c(Cl)ncnc3c2c2c1CCC2	8.07 µM (active)
CC(=O)Nc1nc(C)c(-c2csc(Nc3cccc([N+](=O)[O-])c3)n2)s1	24.8 µM (active)

State the recorded EC50 for this entry: COC(=O)c1sccc1NC(=O)c1cc(-c2cccc(C)c2)nc2ccccc12
8.24 µM (active)

State the recorded EC50 for this entry: O=C(Nc1ccc(NC(=O)c2sc3ccccc3c2Cl)cc1)c1ccco1
9.19 µM (active)

State the recorded EC50 for this entry: CCN1CCN(C(c2cccnc2)c2cc(Cl)c3cccnc3c2O)CC1 (stereo unspecified)
15.1 µM (active)

State the recorded EC50 for this entry: CC(C)(C)c1ccc(/C=C/C(=O)c2ccc(NC3=NCCCS3)cc2)cc1
4.92 µM (active)

====

Reported AC50 values are given for each entry in this list.
Assay: reduction of Shn3 3'UTR-driven luciferase in osteoblasts – cell-based, Clone20 osteoblasts, firefly luciferase, cherry-picked, dose response (AID 624132);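 note: firefly luciferase luminescence from reporter carrying the Shn3 3'UTR in osteoblasts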
Assay type: functional
The source made the active and inactive calls.

Take a look at these entries with their results.
Cc1cccc(C(=O)Nc2ccc(C(=O)/C=C/c3cccnc3)cc2)c1	6.23 µM (active)
O=C(Nc1ccc(Oc2ccccc2)cc1)C1CCN(c2c3c(nc4ncnn24)CCC3)CC1	5.64 µM (active)
CSc1nc(N2CCN(Cc3ccc4c(c3)OCO4)CC2)c2ccccc2n1	24.1 µM (active)
COc1ccc(CCNc2cc(N3CCN(C(=O)c4ccccc4OC)CC3)ccc2[N+](=O)[O-])cc1OC	2.63 µM (active)

State the recorded AC50 for this entry: Cc1cccc(/C=C(\c2nc3ccccc3[nH]2)S(=O)(=O)c2ccccc2)c1
4.5 µM (active)

====

Assay: luciferase reporter signal suppression in cells – H4 neuroglioma cells, luminescence, dose response (AID 1990)
Format: functional, cell-based
The source made the active and inactive calls.
measured metric: EC50

Take a look at these entries with their results.
Cc1ccc(-c2cc(-c3ccc(C)cc3)[n+](-c3ccc(C(=O)[O-])cc3)c(-c3ccc(C)cc3)c2)cc1	> 120 µM (not active)
COc1ccc(-c2nnc3sc(C4CCCCC4)nn23)cc1OC	58.6 µM (active)
CCCCCC(=O)N[C@@H](c1ccccc1)[C@@H](O)C(=O)O[C@H]1C[C@@]2(O)[C@@H](OC(=O)c3ccccc3)C3[C@](C)(C(=O)[C@H](OC(C)=O)C(=C1C)C2(C)C)[C@@H](O)C[C@H]1OC[C@@]31OC(C)=O (stereo not given in full)	< 0.1 µM (active)
CCOc1cc(NC(=O)c2ccccc2C)c(OCC)cc1NC(=O)C1=Cc2ccccc2OC1	> 120 µM (not active)

// below: EC50 requested for another compound
State the recorded EC50 for this entry: Cc1ccc(S(=O)(=O)N2CCOC23CCN(C(=O)c2ccc(Cl)cc2Cl)CC3)cc1
> 120 µM (not active)

====

Reported AC50 values are given for each entry in this list.
Biological target: Cytochrome P450 3A4 (Homo sapiens, UniProt P08684);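 note: CYP3A4 tested as one member of a cytochrome P450 panel screen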
Sequence (P08684 whole entry): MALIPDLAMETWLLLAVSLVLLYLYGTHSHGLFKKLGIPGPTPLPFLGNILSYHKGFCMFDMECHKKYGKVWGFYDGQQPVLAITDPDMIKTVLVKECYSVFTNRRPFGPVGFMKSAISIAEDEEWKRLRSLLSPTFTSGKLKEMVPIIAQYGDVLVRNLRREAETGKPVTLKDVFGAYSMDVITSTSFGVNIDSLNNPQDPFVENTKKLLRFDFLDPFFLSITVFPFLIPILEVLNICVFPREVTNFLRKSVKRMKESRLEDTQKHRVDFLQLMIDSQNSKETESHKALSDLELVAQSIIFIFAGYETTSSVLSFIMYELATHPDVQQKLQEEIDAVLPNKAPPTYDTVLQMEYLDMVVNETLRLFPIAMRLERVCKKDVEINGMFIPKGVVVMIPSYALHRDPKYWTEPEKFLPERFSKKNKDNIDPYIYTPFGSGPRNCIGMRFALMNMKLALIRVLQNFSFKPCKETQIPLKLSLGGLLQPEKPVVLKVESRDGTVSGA

State the recorded AC50 for this entry: CC(=O)N1CCC2(CCCN(Cc3nccs3)C2)CC1
39.8 µM (inconclusive)

State the recorded AC50 for this entry: Cc1ccc(S(=O)(=O)NCCC(=O)NCc2ccccc2)cc1
25.1 µM (inconclusive)

State the recorded AC50 for this entry: CN(C)C(=O)c1ccc(-c2cncnc2Nc2ccccc2)cc1
5.01 µM (inconclusive)

State the recorded AC50 for this entry: Cn1cnc2c(NC3CCCC3)ncnc21
25.1 µM (inconclusive)

====

Biological target: Sentrin-specific protease 8 (Homo sapiens, UniProt Q96LD8);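 note: luminescence read-out of SENP8 inhibition, dose-response confirmation following an ultra-high-throughput screen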
Sequence (Q96LD8 whole entry): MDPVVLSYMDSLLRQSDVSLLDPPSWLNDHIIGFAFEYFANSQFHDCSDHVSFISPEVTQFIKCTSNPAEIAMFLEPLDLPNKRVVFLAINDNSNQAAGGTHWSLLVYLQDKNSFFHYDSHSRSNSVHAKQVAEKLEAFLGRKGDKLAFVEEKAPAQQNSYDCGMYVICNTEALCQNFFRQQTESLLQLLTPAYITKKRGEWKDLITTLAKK
Assay type: functional
The source made the active and inactive calls.
Reported IC50 values are given for each entry in this list.

Take a look at these entries with their results.
CCOC(=O)C1=C(C)OC2(O)c3ccccc3C(=O)C12O (stereo not drawn)	5.38 µM (active)
O=C(c1cccs1)c1coc2ccc(O)cc12	> 100 µM (inactive)

// below: IC50 requested for another molecule
State the recorded IC50 for this entry: Cc1c(NC(=O)c2ccccc2N)cccc1C(=O)O
11.4 µM (active)

====

Biological target: FAD-linked sulfhydryl oxidase ALR (Homo sapiens, UniProt P55789)
Sequence (P55789 whole entry): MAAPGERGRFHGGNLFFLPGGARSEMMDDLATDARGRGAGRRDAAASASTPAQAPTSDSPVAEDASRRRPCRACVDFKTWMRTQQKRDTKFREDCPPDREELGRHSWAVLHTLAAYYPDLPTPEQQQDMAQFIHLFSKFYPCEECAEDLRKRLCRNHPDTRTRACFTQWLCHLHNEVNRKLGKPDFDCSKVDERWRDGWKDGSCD
Assay: ALR-catalysed DTT oxidation blockers – biochemical, H2O2 detection, luminescence, cherry-pick, dose response (AID 493248)
Activity calls are given as the source filed them.
measured metric: AC50

Take a look at these entries with their results.
O=C(O)c1cc2ccccc2cc1Nc1ccccc1	1.49 µM (active)
N#CC1=C(N)N=C(S)C(C(N)=O)C1c1ccccc1F (centres undefined)	8.62 µM (active)
CCn1c(C)nc2cc(C(=O)N/N=C/c3cccc(O)c3O)ccc21	3.82 µM (active)

State the recorded AC50 for this entry: Cn1c(S)nnc1CSCc1ccc(Cl)cc1
8.71 µM (active)

State the recorded AC50 for this entry: CC(C)c1ccc(NC2CCCN(C(=O)CCN3Cc4ccccc4C3=O)C2)cc1 (centres undefined)
4.43 µM (active)

State the recorded AC50 for this entry: O=C(NCCc1ccc(O)cc1)c1ccc(Cl)cc1
6.24 µM (active)

State the recorded AC50 for this entry: COc1ccc(-c2[nH]c(-c3ccc(C(=O)O)cc3)nc2-c2ccccc2)cc1
3.94 µM (active)

State the recorded AC50 for this entry: CC(=O)Nc1nc(C)c(-c2csc(Nc3ccc(O)cc3)n2)s1
0.17 µM (active)

State the recorded AC50 for this entry: CN1CC(=O)N(CC(=O)Nc2ccc(SC(F)F)cc2)C1=O
0.477 µM (active)

State the recorded AC50 for this entry: O=C(O)c1ccc(-n2c(/C=C/c3ccccc3)nc3ccccc3c2=O)cc1
5.95 µM (active)

State the recorded AC50 for this entry: CCN1/C(=C2/SC(=S)NC2=O)Sc2ccccc21
2.18 µM (active)

State the recorded AC50 for this entry: CN(C)c1ccc(C(C(=O)NC2CCCC2)N(C(=O)c2ccco2)C2CC2)cc1 (centres undefined)
2.33 µM (active)

State the recorded AC50 for this entry: C/C(=N\Nc1nc2ccccc2[nH]1)c1cccs1
0.02 µM (active)

State the recorded AC50 for this entry: O=C(O)CC/C(=N\Nc1ccccc1[N+](=O)[O-])c1cccs1
2.73 µM (active)

Hello, the source for this data is ChEMBL document CHEMBL1201862, in case you need it.
